# target_or_test_system: EP2 subtype of the human PGE2 receptor (Homo sapiens, UniProt P43116)
# Sequence (P43116 whole entry): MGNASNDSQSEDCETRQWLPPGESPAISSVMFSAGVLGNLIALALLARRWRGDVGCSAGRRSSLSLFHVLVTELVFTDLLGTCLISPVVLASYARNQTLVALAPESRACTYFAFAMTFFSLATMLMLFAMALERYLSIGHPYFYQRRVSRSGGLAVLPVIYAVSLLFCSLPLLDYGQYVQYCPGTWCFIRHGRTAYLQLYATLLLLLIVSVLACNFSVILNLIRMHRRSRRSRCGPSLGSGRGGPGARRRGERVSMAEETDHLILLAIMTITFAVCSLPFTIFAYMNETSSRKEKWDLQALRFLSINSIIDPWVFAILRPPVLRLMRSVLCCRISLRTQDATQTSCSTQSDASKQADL
# experiment_summary: cAMP antagonism test on the human EP2 receptor (HTRF cAMP detection)
# Assay type: cell-based
# stated_conditions: hEP2 receptor, read-out: Antagonism hEP2 IC50
value_type: IC50 (nM)

> print(dat)
                                   compound  unit.of.measurement  recorded.measurement
1  COCCNC(=O)c1ccc2nn(CC3CCN(C(=O)c4ccc(-c5ccc(Cl)cc5F)cc4)CC3)cc2c1C [Example 383]                   nM                  5.78
2  Cc1c(C(=O)NCC(F)(F)F)ccc2nn(CC3CCN(C(=O)c4ccc(Oc5ccc(F)cc5)cc4)CC3)cc12 [Example 283]                   nM                  65.5
3  Cc1c(C(=O)NCC(F)(F)F)ccc2nn(CC3CN(C(=O)c4ccc(C(F)(F)F)cc4F)C3)cc12 [Example 131]                   nM                   228

A: COCCNC(=O)c1ccc2nn(CC3CN(C(=O)c4cc5cc(F)ccc5n4C)C3)cc2c1C [Example 170]
B: Cc1c(C(=O)NCC(F)(F)F)ccc2nn(CC3CCN(C(=O)c4ccc(-c5ccc(C(F)(F)F)nc5)cc4)CC3)cc12 [Example 321]
C: Cc1c(C(=O)NCC(F)(F)F)ccc2nn(CC3CCN(C(=O)c4ccc(Oc5cccc(F)c5)cc4)CC3)cc12 [Example 307]
D: COCCNC(=O)c1ccc2nn(CC3CCN(C(=O)c4ccc(Oc5ccc(F)cc5F)cc4)CC3)cc2c1C [Example 358]
Sort ascending by IC50. Thanks in advance for listing the labels in the requested order.
A, D, C, B
